Tested on: LRRK2
Details: concentration: 1 μM, replicates: in singlicate; n = 1
I'd appreciate it if you could supply %Inh values for the items below.
Give bare numbers, in %.

These recorded examples may help you get a feel for the data.
molecule: COc1ccc(Nc2nccc(NCCNC(=O)c3cc4ccccc4s3)n2)cc1 [GSK1379896]
target_desc: LRRK2
%Inh, %: 0
//
molecule: Cc1ccc(C)c(NC(=O)NC2CCN(c3ccnc(Nc4ccc(F)cc4)n3)C2)c1 (stereo not shown) [GSK1379720]
target_desc: LRRK2;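 note: KINOMEscan kinase panel screen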
%Inh, %: 0

Batch: %Inh for all items listed.
1. Cl.Cl.NCC(C(=O)Nc1cc(Br)c(-c2ccnc3[nH]ccc23)s1)c1ccccc1 (stereo not shown) [GSK1269851]
2. COc1cc(Nc2nccc(N3CCC(NC(=O)Nc4cccc(C(C)=O)c4)C3)n2)cc(OC)c1OC (stereo not shown) [GSK1379753]

1: 20; 2: 0
